Provenance of the data: ChEMBL document CHEMBL4219040

# SYSTEM NAME: Sodium- and chloride-dependent glycine transporter 2 (Homo sapiens)
# Sequence (Q9Y345 whole entry): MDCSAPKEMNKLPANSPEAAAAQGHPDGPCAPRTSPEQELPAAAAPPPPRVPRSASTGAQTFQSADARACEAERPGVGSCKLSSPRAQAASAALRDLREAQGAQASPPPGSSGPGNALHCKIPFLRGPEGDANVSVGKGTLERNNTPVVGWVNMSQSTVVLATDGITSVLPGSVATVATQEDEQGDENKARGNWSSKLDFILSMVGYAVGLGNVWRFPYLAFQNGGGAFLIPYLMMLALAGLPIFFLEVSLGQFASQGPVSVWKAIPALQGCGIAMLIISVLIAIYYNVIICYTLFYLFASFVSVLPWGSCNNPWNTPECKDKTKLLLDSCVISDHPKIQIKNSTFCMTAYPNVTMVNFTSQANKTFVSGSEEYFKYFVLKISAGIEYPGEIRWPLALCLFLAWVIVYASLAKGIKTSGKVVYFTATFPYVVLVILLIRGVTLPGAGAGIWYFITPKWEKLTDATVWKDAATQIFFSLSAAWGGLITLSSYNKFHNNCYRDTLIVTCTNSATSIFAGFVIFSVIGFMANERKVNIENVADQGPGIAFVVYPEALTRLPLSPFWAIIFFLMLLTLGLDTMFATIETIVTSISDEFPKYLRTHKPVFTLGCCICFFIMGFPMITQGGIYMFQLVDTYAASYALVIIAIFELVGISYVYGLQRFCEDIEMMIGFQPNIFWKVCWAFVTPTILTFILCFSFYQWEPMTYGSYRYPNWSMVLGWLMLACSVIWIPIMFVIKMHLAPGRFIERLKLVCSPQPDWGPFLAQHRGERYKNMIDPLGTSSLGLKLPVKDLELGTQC
# PROTOCOL TEXT: Inhibition of human GlyT-2 expressed in HEK293 cells assessed as reduction in [3H]-glycine uptake preincubated for 30 mins followed by 3H]-glycine addition measured after 30 mins by liquid scintillation counting method
# Assay type: cell-based
REPORTED ENDPOINT: pIC50
pIC50 here is simply -log10 of the concentration when that concentration is written in mol/L.

Input: Please indicate pIC50 recorded for N[C@@H](COC(c1cccc(F)c1)c1ccccc1OCc1ccccc1)C(=O)O (stereo partly specified)
Output: 7.00

====

# SYSTEM NAME: Glycine receptor subunit alpha-1 (Mus musculus, UniProt Q64018)
# Sequence (Q64018 whole entry): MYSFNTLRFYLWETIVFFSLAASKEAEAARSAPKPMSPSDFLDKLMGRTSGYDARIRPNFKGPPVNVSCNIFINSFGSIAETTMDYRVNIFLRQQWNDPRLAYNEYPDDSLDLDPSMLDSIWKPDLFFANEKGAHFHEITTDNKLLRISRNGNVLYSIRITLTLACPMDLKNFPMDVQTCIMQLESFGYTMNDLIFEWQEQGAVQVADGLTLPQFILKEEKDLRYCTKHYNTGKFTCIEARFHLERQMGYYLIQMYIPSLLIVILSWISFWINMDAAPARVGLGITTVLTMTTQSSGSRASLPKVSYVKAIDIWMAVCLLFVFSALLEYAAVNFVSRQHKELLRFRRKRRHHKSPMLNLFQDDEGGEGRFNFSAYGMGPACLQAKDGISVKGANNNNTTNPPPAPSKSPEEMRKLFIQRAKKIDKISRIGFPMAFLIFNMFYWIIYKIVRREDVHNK
# PROTOCOL TEXT: Positive allosteric modulation of mouse GlyRalpha1 expressed in HEK293 cells assessed as potentiation of glycine-induced calcium flux by calcium dye-5 based FLIPR assay
# Assay type: cell-based
REPORTED ENDPOINT: EC50 (nM)
Provide only the numeric value, understood in nM.

Input: Please give measured EC50 of the following entry: CN1C(=O)[C@@H]2CN(S(=O)(=O)c3ccc4occc4c3)C[C@@H]2c2cnccc21
Output: 268

====

# SYSTEM NAME: Glycine receptor alpha-3/beta (Homo sapiens, UniProt O75311+P48167)
# PROTOCOL TEXT: Positive allosteric modulation of human GlyRalpha3beta expressed in CHO cells assessed as potentiation of EC20 glycine-induced ion flux at 10 uM by HT assay
# Type: cell-based
REPORTED ENDPOINT: Activity (%)
Reply with just the number (in %).

Solved cases (8 shown):
SMILES STR: CN1c2ncccc2N(Cc2ccccc2C(F)(F)F)C(=O)[C@H]1Cc1ccc(C(N)=O)cc1
Activity (%): 64
--
SMILES STR: O=C(O)c1ccc(C[C@@H]2Sc3ccccc3N(Cc3ccccc3C(F)(F)F)C2=O)cc1F
Activity (%): 44
--
SMILES STR: CN1C(=O)[C@@H]2CN(S(=O)(=O)c3ccc4c(c3)OCO4)C[C@@H]2c2cnccc21
Activity (%): 95
--
SMILES STR: CC(C)(C)c1cc(C(C)(C)C)c(O)c(C(=O)O)c1O
Activity (%): 182
--
SMILES STR: O=C(O)c1ccc(C[C@H]2Sc3c(F)cccc3N(Cc3ccccc3C(F)(F)F)C2=O)cc1
Activity (%): 59
--
SMILES STR: O=S(=O)(NCCOc1cccc2cccnc12)c1ccccc1
Activity (%): 182
--
SMILES STR: CC(C)(C)c1cccc(C(C)(C)C)c1O
Activity (%): 116
--
SMILES STR: O=[N+]([O-])c1cccc(S(=O)(=O)NCCOc2cccc3cccnc23)c1
Activity (%): 98

Kindly consider the entry below.
Input: Report Activity for C#Cc1cc(C(=O)OC)cc(-c2ncco2)c1
Output: 49
